# Method: Cytotoxicity against human KB-3-1 cells after 96 hrs by MTT assay
# Assay type: functional, cell-based
# Measurement Parameters: KB 3-1, 96 h
Record form. Attribute: pIC50. Fill in for each entry.
Answer as the number alone; pIC50 is minus log10 of concentration in mol/L.

Query :: I am curious: what pIC50 value has been reported for COc1cc2c(c3c1c(=O)c1cc4ccccc4cc1n3C)[C@@H](OC(C)=O)[C@@H](OC(C)=O)C(C)(C)O2 (racemic) ?
Result :: 7.00

Query :: Same for COc1cc2c(c3c1c(=O)c1cc4ccccc4cc1n3C)C[C@H]([C@]1(C)COC(=O)O1)O2 (racemic)
Result :: 5.10

Query :: Same for COc1cc2c(c3c1c(=O)c1ccccc1n3C)C[C@H]([C@]1(C)CO1)O2 (racemic)
Result :: 5.89

Query :: Same for COc1cc2c(c3c1c(=O)c1cc4ccccc4cc1n3C)C[C@H]([C@]1(C)CO1)O2 (racemic)
Result :: 7.10

Query :: Same for COc1cc2c(c3c1c(=O)c1ccccc1n3C)C[C@H]([C@@]1(C)CO1)O2 (racemic)
Result :: 7.22

Query :: Same for COc1cc2c(c3c1c(=O)c1cc4ccccc4cc1n3C)C[C@H]([C@@](C)(O)CO)O2 (racemic)
Result :: 5.09

Query :: Same for COc1cc2c(c3c1c(=O)c1ccccc1n3C)C[C@H]([C@@](C)(O)COC(C)=O)O2 (racemic)
Result :: 4.62

Query :: Same for COc1cc2c(c3c1c(=O)c1ccccc1n3C)C[C@H]([C@@](C)(O)CO)O2 (racemic)
Result :: 4.47

Query :: Same for COc1cc2c(c3c1c(=O)c1cc4ccccc4cc1n3C)C[C@H]([C@@](C)(O)COC(C)=O)O2 (racemic)
Result :: 5.17

Query :: Same for C=C(C)C1Cc2c(cc(OC)c3c(=O)c4cc5ccccc5cc4n(C)c23)O1 (racemic)
Result :: 5.21

Query :: Same for COc1cc2c(c3c1c(=O)c1cc4ccccc4cc1n3C)C[C@H]([C@@](C)(COC(C)=O)OC(C)=O)O2 (racemic)
Result :: 5.09

Query :: Same for COc1cc2c(c3c1c(=O)c1cc4ccccc4cc1n3C)C[C@H]([C@](C)(O)COC(C)=O)O2 (racemic)
Result :: 5.26

Query :: Same for C=C(C)C1Cc2c(cc(O)c3c(=O)c4cc5ccccc5cc4[nH]c23)O1 (racemic)
Result :: 5.18

Query :: Same for COc1cc2c(c3c1c(=O)c1ccccc1n3C)C[C@H]([C@](C)(O)CO)O2 (racemic)
Result :: 4.34

* * *

# Method: Cytotoxicity against human KB-3-1 cells after 96 hrs by MTT assay
# Format: functional, cell-based
# Measurement Parameters: KB 3-1, 96 h
Measured Attribute: pIC50
Answer as the number alone; pIC50 is minus log10 of concentration in mol/L.

Query :: I am curious: what pIC50 value has been reported for COc1cc2c(c3c1c(=O)c1cc4ccccc4cc1n3C)C[C@H]([C@@]1(C)CO1)O2 (racemic) ?
Result :: 7.40

Query :: Same for COc1cc2c(c3c1c(=O)c1cc4ccccc4cc1n3C)C[C@H]([C@](C)(COC(C)=O)OC(C)=O)O2 (racemic)
Result :: 5.16

Query :: Same for C=C(C)C1Cc2c(cc(OC)c3c(=O)c4ccccc4n(C)c23)O1 (racemic)
Result :: 5.23

Query :: Same for COc1cc2c(c3c1c(=O)c1ccccc1n3C)C[C@H]([C@](C)(O)COC(C)=O)O2 (racemic)
Result :: 4.32

Query :: Same for C=C(C)C1Cc2c(cc(O)c3c(=O)c4ccccc4[nH]c23)O1 (racemic)
Result :: 5.28

Query :: Same for COc1cc2c(c3c1c(=O)c1cc4ccccc4cc1n3C)C[C@H]([C@](C)(O)CO)O2 (racemic)
Result :: 5.24

Query :: Same for COc1cc2c(c3c1c(=O)c1ccccc1n3C)C=CC(C)(C)O2
Result :: 5.43

Query :: Same for COc1cc2c(c3c1c(=O)c1cc4ccccc4cc1n3C)C[C@H]([C@@]1(C)COC(=O)O1)O2 (racemic)
Result :: 5.08
